Target: Sigma non-opioid intracellular receptor 1 (Cavia porcellus, UniProt Q60492)
Sequence (Q60492 whole entry): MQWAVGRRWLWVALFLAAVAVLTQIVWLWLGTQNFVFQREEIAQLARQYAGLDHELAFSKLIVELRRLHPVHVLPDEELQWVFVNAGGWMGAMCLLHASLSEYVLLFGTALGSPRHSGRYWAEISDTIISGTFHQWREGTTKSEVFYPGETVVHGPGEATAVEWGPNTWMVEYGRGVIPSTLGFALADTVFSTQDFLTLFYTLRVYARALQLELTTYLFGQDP
Experiment: Displacement of [3H]-(+)-pentazocine from sigma1 receptor in guinea pig brain cortex membranes after 120 mins by scintillation counting method
experimental-readout: Ki (nM)

Would you please look over these solved cases?
| test-smiles | unit-string | recorded-result |
| --- | --- | --- |
| CN(CCCCN1C(=O)CSc2ccccc21)Cc1ccccc1 | nM | 5 |
| CN(CCCCN1C(=O)COc2ccccc21)Cc1ccccc1 | nM | 30 |
| CN(CCCCN1C(=O)c2ccccc2C1=O)Cc1ccccc1 | nM | 844 |

a = CN(CCCCN1CCCCC1=O)Cc1ccc(Cl)cc1
b = CN(CCCCN1C(=O)CCc2ccccc21)Cc1ccc(Cl)cc1
c = CN(CCCCN1C(=O)C(=O)c2ccccc21)Cc1ccccc1
q: Output the entries ranked by Ki from maximum down to minimum. Reply with the item labels sorted in the order that was asked for.
a: a, c, b
(a: 770 nM, c: 519 nM, b: 33 nM)
